- Test system: H929 multiple myeloma tumour line
- TEST METHOD NOTES: In vitro cytotoxicity, Microculture Tetrazolium Assay
- Assay type: cell-based
- TEST PARAMETERS: Homo sapiens, NCI-H929, 48 h, H929 cells, 48 hours exposure, MTT; read-out: IC50 (μM) MTT H929
// values below are reported IC50
A number alone suffices; assume µM.

Solved cases below.
[
  {
    "COMPOUND": "Cc1c(-c2c(-c3ccc(F)o3)sc3ncnc(OC(Cc4ccccc4OCCOCCO)C(=O)O)c23)ccc(OCCN2CCN(C)CC2)c1Cl (stereo not drawn)",
    "SYSTEM NAME": "H929 multiple myeloma tumour line",
    "MEASUREMENT UNIT": "µM",
    "IC50": 0.311
  },
  {
    "COMPOUND": "CCN1CCN(CCOc2ccc(-c3c(-c4ccco4)sc4ncnc(OC(Cc5ccccc5OCc5ccnc(OC)n5)C(=O)O)c34)c(C)c2Cl)CC1 (stereo not drawn)",
    "SYSTEM NAME": "H929 multiple myeloma tumour line",
    "MEASUREMENT UNIT": "µM",
    "IC50": 0.027
  },
  {
    "COMPOUND": "Cc1c(-c2c(-c3cccn3C)sc3ncnc(OC(Cc4ccccc4)C(=O)O)c23)ccc(OCCN2CCN(C)CC2)c1Cl (stereo not drawn)",
    "SYSTEM NAME": "H929 multiple myeloma tumour line",
    "MEASUREMENT UNIT": "µM",
    "IC50": 7.02
  }
]

Entry COc1ccccc1-c1nccc(COc2ccccc2CC(Oc2ncnc3sc(-c4ccc(OCc5ccnn5C)cc4)c(-c4ccc(OCCN5CCN(C)CC5)c(Cl)c4C)c23)C(=O)O)n1 (stereo not drawn) under H929 multiple myeloma tumour line had IC50 of 0.019

Entry Cc1c(-c2c(-c3ccc(Cl)o3)sc3ncnc(OC(Cc4ccccc4OCc4cncnc4)C(=O)O)c23)ccc(OCCN2CCN(C)CC2)c1Cl (stereo not drawn) under H929 multiple myeloma tumour line had IC50 of 0.081

Entry Cc1c(-c2c(-c3ccco3)sc3ncnc(OC(Cc4cccc(F)c4)C(=O)O)c23)ccc(OCCN2CCN(C)CC2)c1Cl (stereo not drawn) under H929 multiple myeloma tumour line had IC50 of 0.346

Entry COc1ccccc1CC(Oc1ncnc2sc(-c3ccc(C4CC4)o3)c(-c3ccc(OCCN4CCN(C)CC4)c(Cl)c3C)c12)C(=O)O (stereo not drawn) under H929 multiple myeloma tumour line had IC50 of 2.92

Entry Cc1cccc(COc2ccccc2CC(Oc2ncnc3sc(-c4ccco4)c(-c4ccc(OCCN5CCN(C)CC5)c(Cl)c4C)c23)C(=O)O)n1 (stereo not drawn) under H929 multiple myeloma tumour line had IC50 of 0.098

Entry Cc1c(-c2c(-c3ccc(F)cc3)sc3ncnc(OC(Cc4ccccc4OCc4ccnc(C(F)(F)F)c4)C(=O)O)c23)ccc(OCCN2CCN(C)CC2)c1Cl (stereo not drawn) under H929 multiple myeloma tumour line had IC50 of 0.062

----------
// values below are reported IC50
- Tested on: H929 multiple myeloma tumour line
- TEST METHOD NOTES: In vitro cytotoxicity, Microculture Tetrazolium Assay
- Type: cell-based
- TEST PARAMETERS: H929 cells, 48 hours exposure, MTT; read-out: IC50 (μM) MTT H929
A number alone suffices; assume µM.

Solved cases below.
[
  {
    "COMPOUND": "CCc1sc2ncnc(O[C@H](Cc3ccccc3)C(=O)O)c2c1-c1ccc(OCCN(C)CCO)c(Cl)c1C [Example 411]",
    "RECORDED MEASUREMENT": 19
  },
  {
    "COMPOUND": "COc1ccccc1CC(Oc1ncnc2sc(-c3ccco3)c(-c3ccc(OC4CCNC4)c(Cl)c3C)c12)C(=O)O (single isomer, unassigned) [Example 306]",
    "RECORDED MEASUREMENT": 1.12
  }
]

Reported IC50 ( CCCCCn1nccc1C(C)Oc1ccccc1CC(Oc1ncnc2sc(-c3ccc(F)cc3)c(-c3ccc(OCCN4CCN(C)CC4)c(Cl)c3C)c12)C(=O)O (single isomer, unassigned) [Example 6] ) = 0.332

----------
- Tested on: H929 multiple myeloma tumour line
- TEST METHOD NOTES: In vitro cytotoxicity, Microculture Tetrazolium Assay
- Assay type: cell-based
- TEST PARAMETERS: Homo sapiens, NCI-H929, 48 h, H929 cells, 48 hours exposure, MTT; read-out: IC50 (μM) MTT H929
VALUE TYPE: IC50 (µM)
A number alone suffices; assume µM.

Solved cases below.
[
  {
    "COMPOUND": "Cc1c(-c2c(-c3ccc(F)cc3)sc3ncnc(OC(Cc4ccccc4OCc4ccnc(-c5ccoc5)n4)C(=O)O)c23)ccc(OCCN2CCN(C)CC2)c1Cl (stereo not drawn) [Example 35]",
    "SYSTEM NAME": "H929 multiple myeloma tumour line",
    "MEASUREMENT UNIT": "µM",
    "IC50": 0.027
  },
  {
    "COMPOUND": "CCCCn1nccc1COc1ccccc1CC(Oc1ncnc2sc(-c3ccc(OC)cc3)c(-c3ccc(OCCN4CCN(C)CC4)c(Cl)c3C)c12)C(=O)O (stereo not drawn) [Example 603]",
    "SYSTEM NAME": "H929 multiple myeloma tumour line",
    "MEASUREMENT UNIT": "µM",
    "IC50": 0.036
  }
]

Entry Cc1c(-c2c(-c3ccc(Cl)o3)sc3ncnc(OC(Cc4ccccc4OCc4ccccn4)C(=O)O)c23)ccc(OCCN2CCN(C)CC2)c1Cl (stereo not drawn) [Example 366] under H929 multiple myeloma tumour line had IC50 of 0.346

----------
- System: H929 multiple myeloma tumour line
- TEST METHOD NOTES: In vitro cytotoxicity, Microculture Tetrazolium Assay
- Format: cell-based
- TEST PARAMETERS: Homo sapiens, NCI-H929, 48 h, H929 cells, 48 hours exposure, MTT; read-out: IC50 (μM) MTT H929
- Description: The cytotoxicity studies were carried out on the H929 multiple myeloma tumour line. The cells are distributed onto microplates and exposed to the test compounds for 48 hours.
VALUE TYPE: log10 of IC50 (log10 of the value in µM)
Please keep in mind that the values are log10 of IC50 expressed in µM.

Reported log10 of IC50 ( Cc1c(-c2c(-c3ccc(F)cc3)sc3ncnc(OC(Cc4ccccc4OCC(F)(F)F)C(=O)O)c23)ccc(OCCN(C)C)c1Cl (centres unmarked) ) = -0.25

Reported log10 of IC50 ( COc1nccc(COc2ccccc2CC(Oc2ncnc3sc(-c4ccco4)c(-c4ccc(OCCN5CCN(C(C)C)CC5)c(Cl)c4C)c23)C(=O)O)n1 (centres unmarked) ) = -1.72

Reported log10 of IC50 ( Cc1c(-c2c(-c3ccc(F)o3)sc3ncnc(OC(Cc4ccccc4OCC(=O)NCCc4ccccc4)C(=O)O)c23)ccc(OCCN2CCN(C)CC2)c1Cl (centres unmarked) ) = -0.72

----------
- SYSTEM NAME: Mcl-1 protein (UniProtKB primary accession number: Q07820) (Homo sapiens, UniProt Q07820)
- Sequence (Q07820 whole entry): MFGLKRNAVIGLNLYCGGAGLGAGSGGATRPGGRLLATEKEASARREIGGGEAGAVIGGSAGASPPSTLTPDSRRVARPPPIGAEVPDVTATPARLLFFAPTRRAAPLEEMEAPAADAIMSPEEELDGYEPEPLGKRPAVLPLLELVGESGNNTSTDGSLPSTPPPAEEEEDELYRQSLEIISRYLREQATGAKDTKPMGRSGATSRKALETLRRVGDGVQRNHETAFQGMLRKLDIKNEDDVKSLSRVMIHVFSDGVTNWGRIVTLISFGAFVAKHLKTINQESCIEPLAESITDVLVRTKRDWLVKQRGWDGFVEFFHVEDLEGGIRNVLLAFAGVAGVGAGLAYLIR
- TEST METHOD NOTES: Inhibition of Mcl-1 by fluorescence polarisation, Method 1
- Assay type: binding
- TEST PARAMETERS: fluorescence polarisation; Method 1, or Method 2; read-out: IC50 (M) Mcl-1 FP
- Description: The relative binding potency of each compound was determined via Fluorescence Polarisation (FP). An 11 point serial dilution of each compound was prepared in DMSO and 2 μl transferred into flat bottomed, low binding, 384-well plate (final DMSO concentration 5%). […]
// values below are reported IC50
A number alone suffices; assume M.

Solved cases below.
[
  {
    "COMPOUND": "Cc1c(-c2c(-c3ccnn3C)sc3ncnc(OC(Cc4ccccc4)C(=O)O)c23)ccc(OCCN2CCN(C)CC2)c1Cl (stereo not drawn)",
    "IC50 / M": "3.7e-07"
  },
  {
    "COMPOUND": "CC#Cc1sc2ncnc(O[C@H](Cc3ccccc3OC)C(=O)O)c2c1-c1ccc(CCCN(C)C)c(Cl)c1C (single isomer, unassigned) [Example 479]",
    "IC50 / M": "1.1e-08"
  },
  {
    "COMPOUND": "COc1ccc(COc2ccc(-c3sc4ncnc(OC(Cc5ccccc5OCc5ccnc(-c6ccccc6OC)n5)C(=O)O)c4c3-c3ccc(OCCN4CCN(C)CC4)c(Cl)c3C)cc2)cc1 (stereo not drawn)",
    "IC50 / M": "1.01e-09"
  },
  {
    "COMPOUND": "CCc1sc2ncnc(OC(Cc3ccccc3)C(=O)O)c2c1-c1cc(Cl)c(O)cc1C (stereo not drawn) [Example 439]",
    "IC50 / M": "2.5e-07"
  },
  {
    "COMPOUND": "CCc1sc2ncnc(OC(Cc3ccccc3)C(=O)O)c2c1-c1cc(OCCN2CCN(C)CC2)ccc1C (stereo not drawn)",
    "IC50 / M": "3e-07"
  }
]

Reported IC50 ( Cc1cc(-c2sc3ncnc(OC(Cc4ccccc4)C(=O)O)c3c2-c2ccc(OCCN3CCN(C)CC3)c(Cl)c2C)cs1 (stereo not drawn) ) = 9.6e-08

Reported IC50 ( COc1ccccc1-c1nccc(COc2ccccc2CC(Oc2ncnc3sc(-c4ccc(OCc5ccc(C)cc5)cc4)c(-c4ccc(OCCN5CCN(C)CC5)c(Cl)c4C)c23)C(=O)O)n1 (stereo not drawn) ) = 1.04e-09

Reported IC50 ( CCc1sc2ncnc(OC(Cc3ccccc3)C(=O)O)c2c1-c1ccc(OCCOC)c(Cl)c1C (stereo not drawn) ) = 9.6e-08

Reported IC50 ( COc1ccccc1CC(Oc1ncnc2sc(-c3cccc(Cl)c3)c(-c3ccc(OCCN4CCN(C)CC4)c(Cl)c3C)c12)C(=O)O (stereo not drawn) ) = 4.8e-08

Reported IC50 ( Cc1c(-c2c(-c3ccn(C)n3)sc3ncnc(OC(Cc4ccccc4)C(=O)O)c23)ccc(OCCN2CCN(C)CC2)c1Cl (stereo not drawn) ) = 7.5e-08

Reported IC50 ( COc1ccccc1-c1nccc(COc2ccccc2CC(Oc2ncnc3sc(-c4ccc(Oc5ccccc5)cc4)c(-c4ccc(OCCN5CCN(C)CC5)c(Cl)c4C)c23)C(=O)O)n1 (single isomer, unassigned) [Example 758] ) = 3.53e-07

Reported IC50 ( COc1ccccc1Cn1ccc(COc2ccccc2CC(Oc2ncnc3sc(-c4ccc(F)cc4)c(-c4ccc(OCCN5CCN(C)CC5)c(Cl)c4C)c23)C(=O)O)n1 (stereo not drawn) ) = 5.04e-09

Source listed as patent US9670227B2.
